The values you see were collected from ChEMBL document CHEMBL1127424.

Task for the reader: assign each of the following compounds its reported Log k'.
# PROTOCOL: HPLC capacity factor (k')
# Format: ADME

C[C@H]1[C@H](N)CN1c1cc2c(cc1F)c(=O)c(C(=O)O)cn2C(C)(C)C: 0.1399
CCn1cc(C(=O)O)c(=O)c2cc(F)c(N3CC(C)(N)C3)c(Cl)c21: 0.121
CCn1cc(C(=O)O)c(=O)c2c(N)c(F)c(N3CC(C)(N)C3)c(F)c21: 0.0367
CC1(C)[C@@H](N)CN1c1nc2c(cc1F)c(=O)c(C(=O)O)cn2C1CC1: -0.0223

Continue with the next compound.
**Query** Provide one value: measured Log k' of O=C(O)c1cn(C2CC2)c2c(F)c(N3CC(O)C3)c(F)cc2c1=O
**Result** 0.3264
